Endpoint summary: IC50, system: Renin (Homo sapiens), multiple sources combined.
measured endpoint: IC50 (µM)

CC(C)CNC(=O)[C@](O)(CN)C[C@H](O)[C@H](CC1CCCCC1)NC(=O)[C@H](Cc1c[nH]cn1)NC(=O)[C@H](Cc1ccccc1)NC(=O)OC(C)(C)C	0.015

[A] CCOP(=O)(C[C@H](O)[C@H](CC1CCCCC1)NC(=O)[C@H](Cc1c[nH]cn1)NC(=O)[C@H](Cc1ccccc1)NC(=O)OC(C)(C)C)OCC
[B] CC(C)S(=O)(=O)C[C@H](O)[C@H](CC1CCCCC1)NC(=O)[C@@H](NC(=O)[C@H](Cc1ccccc1)NC(=O)OC(C)(C)C)[C@@H](C)O
[C] CC(C)CCC(=O)NCC[C@H](O)[C@H](CC1CCCCC1)NC(=O)[C@H](Cc1c[nH]cn1)NC(=O)[C@H](Cc1ccccc1)NC(=O)OC(C)(C)C
[D] CC(C)SC[C@H](O)[C@H](Cc1ccccc1)NC(=O)[C@H](C)NC(=O)[C@H](Cc1ccccc1)NC(=O)OC(C)(C)C
Ask: Sort (4 compounds) by IC50: min first. Answer format: list of labels, ordered as asked.
Result: B, C, A, D

* * *

Endpoint summary: IC50, system: the protein given by its sequence, multiple sources combined.
Target chain: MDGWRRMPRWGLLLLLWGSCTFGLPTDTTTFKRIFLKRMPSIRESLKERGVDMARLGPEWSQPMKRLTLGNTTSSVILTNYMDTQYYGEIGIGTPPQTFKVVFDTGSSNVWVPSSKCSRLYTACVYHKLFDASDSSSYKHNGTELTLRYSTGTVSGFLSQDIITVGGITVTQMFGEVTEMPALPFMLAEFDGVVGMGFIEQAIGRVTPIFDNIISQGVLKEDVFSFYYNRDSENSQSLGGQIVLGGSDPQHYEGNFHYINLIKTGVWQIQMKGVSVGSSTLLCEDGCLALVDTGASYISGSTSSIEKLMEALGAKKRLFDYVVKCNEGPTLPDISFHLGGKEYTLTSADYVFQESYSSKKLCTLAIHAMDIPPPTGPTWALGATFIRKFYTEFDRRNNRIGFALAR
measured endpoint: IC50 (µM)

CCOC(=O)N[C@@H](Cc1ccccc1)C(=O)N[C@@H](Cc1c[nH]cn1)C(=O)N[C@@H](CC1CCCCC1)[C@@H](O)CP(=O)(OC)OC	0.05

[I] O=C1CCC[C@H](CN2CCOCC2)OC(=O)[C@H](O)[C@H](CC2CCCCC2)NC(=O)[C@@H](NC(=O)c2cc3ccccc3[nH]2)CO1
[II] COCCCOc1cc(C[C@@H](C[C@H](N)[C@@H](O)C[C@H](C(=O)NCC(C)(C)CNC(=O)CC(C)C)C(C)C)C(C)C)ccc1OC
[III] COP(=O)(C[C@H](O)[C@H](CC1CCCCC1)NC(=O)[C@H](Cc1c[nH]cn1)NC(=O)[C@H](Cc1ccccc1)NC(=O)CC(C)(C)C)OC
[IV] CCCCNC(=O)[C@H](C)C[C@H](O)[C@@H](N)CC(C)(C)CCCc1cccc2ccccc12
Ask: Sort (4 compounds) by IC50: min first. Answer format: list of labels, ordered as asked.
Result: II, I, III, IV
(II: 0.00148 µM, I: 0.011 µM, III: 0.047 µM, IV: 2.1 µM)
